All figures here come from paper PMC5540273.

Known %Inh of a selection of compounds
# System: CDK9
# condition.context: concentration: 1 μM,replicates: in singlicate; n = 1;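 further: KINOMEscan kinase panel screen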
Param answer (str): number followed by unit.

| compound | study.target | %Inh |
| --- | --- | --- |
| NC(=O)c1ccc(-c2cc3ncnc(SCC(=O)O)c3s2)cc1 | CDK9 | 72% |
| CCNCC(Cc1ccccc1)NC(=O)c1cc(Br)c(-c2ccnc3[nH]ccc23)s1.Cl.Cl (stereo not shown) [GSK1383280] | CDK9 | 19% |
| CN(c1ccccc1CNc1nc(Nc2ccc3c(c2)CC(=O)N3)ncc1C(F)(F)F)S(C)(=O)=O | CDK9 | 40% |
| COc1cc2nccc(Nc3ccc(Oc4ccccc4)cc3)c2cc1OC.Cl [GI261656] | CDK9 | 0% |
| CC(C)S(=O)(=O)N1CCN(Cc2ccc3c(c2)nc(NC(=O)c2ccsc2)n3C[C@H](O)c2ccccc2)CC1 [GW635815] | CDK9 | 0% |

Prompt: Returns the measured %Inh for the input compound. Input: CSc1nccc(-c2c(-c3ccc(F)cc3)ncn2CCCN2CCOCC2)n1.Cl [SB-217146]
Response: 0%

Prompt: Returns the measured %Inh for the input compound. Input: COc1cc(Nc2nccc(N3CCC(NC(=O)c4cccc(C#N)c4)C3)n2)cc(OC)c1OC (stereo not shown) [GSK1379751]
Response: 0%

----------
# Tested on: NEK11
# condition.context: concentration: 1 μM,replicates: in singlicate; n = 1
assay.endpoint: %Inh

Example entries begin here.
| molecule | %Inh |
| --- | --- |
| Cc1cccc(-c2nc(Nc3ccncc3)c3sccc3n2)n1 | 31% |
| COc1cccc(CNC(=O)NC2CCN(c3ccnc(Nc4cc(OC)c(OC)c(OC)c4)n3)C2)c1 (stereo not drawn) | 15% |
| CN(c1cccc(CNc2nc(Nc3ccc4c(c3)CC(=O)N4)ncc2C(F)(F)F)c1)S(C)(=O)=O | 0% |

Prompt: Returns the measured %Inh for the input molecule. Input: O=C(NCC1CC1)c1ccc(-c2cc(C(=O)NC3CC3)ccc2F)cc1
Response: 0%

Prompt: Returns the measured %Inh for the input molecule. Input: CC(C)c1nc(-c2cccc(NS(=O)(=O)c3ccccc3)c2)c(-c2ccnc(Nc3ccc4c(c3)CN(C)CC4)n2)s1
Response: 97.7%

Prompt: Returns the measured %Inh for the input molecule. Input: Cc1ccn2nc(-c3ccc(F)cc3)c(-c3ccncc3)c2c1.Cl
Response: 43%

----------
# Test system: CSF1R
# condition.context: concentration: 1 μM,replicates: in singlicate; n = 1
Assign satisfied whenever %Inh does not fall below 30%; assign not satisfied whenever it does.

Sample answers from the record:
| molecule | assigned.category |
| --- | --- |
| Cc1ccc(Nc2ccnc(Nc3ccc4c(c3)CS(=O)(=O)C4)n2)cc1O.Cl | satisfied |
| CC(=O)c1c(-c2ccncc2)[nH]c(-c2ccncc2)c1C | not satisfied |
| Cn1ccc2ncnc(Oc3ccc(NC(=O)Nc4cccc(C(F)(F)F)c4)c(F)c3)c21 | satisfied |
| O=C1NCCc2[nH]c(-c3ccncc3)cc21 | not satisfied |
| O=C(NCC1CC1)c1ccc(-c2cc(C(=O)NC3CC3)ccc2F)cc1 | not satisfied |
| CN(c1ccccc1CNc1nc(Nc2ccc3c(c2)CC(=O)N3)ncc1C(F)(F)F)S(C)(=O)=O | not satisfied |
| COc1cccc(OC)c1C(=O)Nc1cccc(-c2nn3ccccc3c2-c2ccnc(Nc3cccc(F)c3)n2)c1 | satisfied |
| COc1cccc(CNC(=O)NC2CCN(c3ccnc(Nc4cc(OC)c(OC)c(OC)c4)n3)C2)c1 (stereo not shown) | not satisfied |
| Cn1ccc2ncnc(Oc3ccc(NC(=O)Nc4ccnc(C(F)(F)F)c4)c(Cl)c3)c21 | satisfied |
| CC(=O)Nc1nc2cnc(Nc3cc(NC(=O)c4cccc(CC(C)(C)C#N)c4)ccc3C)nc2s1 | satisfied |

Prompt: State whether the measured %Inh reaches 30%, counting equality as reaching it, for Cn1cc(-c2cccc3c(N)c(C(N)=O)nnc23)cn1
Response: not satisfied

Prompt: State whether the measured %Inh reaches 30%, counting equality as reaching it, for Nc1nccc(-c2ccc3c(N)n[nH]c3c2)n1
Response: not satisfied

Prompt: State whether the measured %Inh reaches 30%, counting equality as reaching it, for CC(=O)Nc1ccc(-c2cc3ncnc(SCC(=O)O)c3s2)cc1
Response: satisfied

Prompt: State whether the measured %Inh reaches 30%, counting equality as reaching it, for CN1CCN(CCCNc2nccc(-c3c(-c4ccc(F)cc4)nn4cc(C(N)=O)ccc34)n2)CC1
Response: not satisfied

Prompt: State whether the measured %Inh reaches 30%, counting equality as reaching it, for CS(=O)(=O)Nc1ccc(-c2ccnc3[nH]ccc23)cc1
Response: satisfied

----------
# Tested on: NDR2
# condition.context: concentration: 1 μM,replicates: in singlicate; n = 1
Known %Inh of a selection of compounds
// return numeric value only (unit: %, not printed)

| compound | unit.string | observed.result |
| --- | --- | --- |
| Cc1ccc2c(-c3ccnc(Nc4ccc(C(F)(F)F)cc4)n3)cnn2n1 [GW819776] | % | 10 |
| CC(C(=O)NC1CCN(c2ccnc(Nc3ccc(F)cc3)n2)C1)c1ccc(Cl)cc1 (stereo not shown) [GSK1379713] | % | 0 |
| Cc1nnc(-c2ccc3occ(-c4ccc(S(C)=O)cc4)c3n2)o1 (stereo not shown) | % | 0 |

Prompt: Returns the measured %Inh for the input compound. Input: Cc1n[nH]c2cc(Nc3ccnc(Nc4cccc(CN5CCOCC5)c4)n3)ccc12 [GW682569]
Response: 14

Prompt: Returns the measured %Inh for the input compound. Input: c1ccc(Oc2ccc(Nc3ccnc4ccc(-c5ccccn5)cc34)cc2)cc1 [GW407034]
Response: 0

Prompt: Returns the measured %Inh for the input compound. Input: Cn1cc(-c2cccc3c(N)c(C(N)=O)nnc23)cn1
Response: 23

Prompt: Returns the measured %Inh for the input compound. Input: C[C@@H]1CCN(C(=O)N2CCCC2)C[C@@H]1N(C)c1ncnc2[nH]ccc12
Response: 0

----------
Known %Inh of a selection of compounds
# Tested on: EPHA2
# condition.context: concentration: 1 μM,replicates: in singlicate; n = 1
// return numeric value only (unit: %, not printed)

| compound | %Inh, % |
| --- | --- |
| Cc1cccc2c(-c3ccncc3)c(-c3ccc(F)cc3)nn12.Cl | 5 |
| Cl.c1ccc(Oc2ccc(Nc3ccnc4cc(-c5ccc(CN6CCNCC6)o5)ccc34)cc2)nc1 | 0 |
| CCn1c(-c2nonc2N)nc2cncc(Br)c21 | 41 |
| COc1cc2ncn(-c3cc(OCC4CCCCC4)c(C(N)=O)s3)c2cc1OC | 4 |
| CN1CCN(CCNc2nc3cc(Oc4ccc(NC(=O)Nc5cc(C(F)(F)F)ccc5F)cc4)ccc3[nH]2)CC1.Cl.Cl | 4 |
| Cc1cccc(-c2nc(Nc3ccncc3)c3sccc3n2)n1 | 0 |
| O=C(Nc1n[nH]c2cc(-c3ccco3)ccc12)C1CC1 | 10 |
| COc1cc2nccc(Nc3ccc(Oc4ccccc4)cc3)c2cc1OC.Cl | 5 |

Prompt: Returns the measured %Inh for the input compound. Input: N#Cc1cccc(C(=O)NC2CCN(c3ccnc(Nc4ccc(F)cc4)n3)C2)c1 (stereo not drawn)
Response: 0

Prompt: Returns the measured %Inh for the input compound. Input: C[C@@H](Oc1cc(-n2cnc3ccc(-c4ccncc4)cc32)sc1C(N)=O)c1ccccc1Cl
Response: 19

Prompt: Returns the measured %Inh for the input compound. Input: COc1cc2c(Nc3ccc(NC(=O)c4ccccc4)cc3)ncnc2cc1OCCCN1CCOCC1
Response: 4

Prompt: Returns the measured %Inh for the input compound. Input: CSc1nccc(-c2c(-c3ccc(F)cc3)ncn2CCCN2CCOCC2)n1.Cl
Response: 0

----------
# Test system: PIM1
# condition.context: concentration: 1 μM,replicates: in singlicate; n = 1
assay.endpoint: %Inh
Param answer (str): number followed by unit.

| compound | %Inh |
| --- | --- |
| CSc1nccc(-c2c(-c3ccc(F)cc3)ncn2CCCN2CCOCC2)n1.Cl [SB-217146] | 35% |

Prompt: Returns the measured %Inh for the input compound. Input: Cc1cccc2c(-c3ccncc3)c(-c3ccc(F)cc3)nn12.Cl [GW461487]
Response: 18%

Prompt: Returns the measured %Inh for the input compound. Input: O=C(Nc1n[nH]c2cc(-c3ccco3)ccc12)C1CC1 [SB-737447]
Response: 6%

Prompt: Returns the measured %Inh for the input compound. Input: CS(=O)(=O)Nc1ccc(-c2ccnc3[nH]ccc23)cc1 [GSK993273]
Response: 28%

Prompt: Returns the measured %Inh for the input compound. Input: COC(=O)c1cccc(NC(=O)NC2CCN(c3ccnc(NCc4ccc(F)cc4)n3)CC2)c1 [GSK1379860]
Response: 0%

----------
# Test system: CAMK1G
# condition.context: concentration: 1 μM,replicates: in singlicate; n = 1
Assign Fulfilled whenever %Inh does not fall below 5%; assign Not fulfilled whenever it does.

Sample answers from the record:
| compound | assigned.category |
| --- | --- |
| OCCn1cc(-c2cnc3nnn(Cc4ccc5ncccc5c4)c3n2)cn1 | Not fulfilled |
| CNC(=O)c1ccccc1Nc1nc(Nc2cccc(CS(C)(=O)=O)c2)ncc1C.O=CO | Fulfilled |
| Cl.Nc1n[nH]c2cc(-c3ccccn3)ccc12 | Not fulfilled |

Prompt: State whether the measured %Inh reaches 5%, counting equality as reaching it, for CCNCC(Cc1ccccc1)NC(=O)c1cc(Br)c(-c2ccnc3[nH]ccc23)s1.Cl.Cl (stereo not drawn)
Response: Fulfilled

Prompt: State whether the measured %Inh reaches 5%, counting equality as reaching it, for CCCC(=O)Nc1n[nH]c2ncccc12
Response: Not fulfilled

Prompt: State whether the measured %Inh reaches 5%, counting equality as reaching it, for Nc1nccc(-c2ccc3c(N)n[nH]c3c2)n1
Response: Not fulfilled
